# key: entry, value: normalized RNA/DNA level without ligand (log10)
B1: library; a variant is named by its letters at N, in order (parent)
chain: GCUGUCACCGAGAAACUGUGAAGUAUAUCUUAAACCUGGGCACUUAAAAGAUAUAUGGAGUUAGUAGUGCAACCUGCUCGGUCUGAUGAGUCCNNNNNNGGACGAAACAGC

Variants of: B1
Assay: normalized RNA/DNA level without ligand (relative to sTRSVctl = 100) (log10 (% of sTRSVctl)); HEK293T; ligand: cyclic di-GMP (c-di-GMP-II aptamer); higher = less ribozyme self-cleavage, higher mRNA level
Conditions: reporter: mCherry (pCS4076), ligand present: no
Please reply with the value in numeric form only.

Observe how each entry below is paired with its result.
| MUTATIONS | RESULT_VALUE |
| --- | --- |
| GACUCA | 1.71 |
| GACCCA | 1.75 |
| CUUCGU | 1.8 |
| GCGGGC | 1.53 |
| UUGAAG | 1.64 |
| CACGGG | 1.63 |
| CUCCCU | 1.66 |
| CAUGUG | 1.71 |

I'd like to know its normalized RNA/DNA level without ligand (log10). The variant in question is GGCAUA 1.58
